assay: activity coefficient (dimensionless); of the first substance listed, at infinite dilution; xn = mol fraction of the nth substance listed; details: 348.15 K; Liquid; Chromatography; x1 = 0
Threshold 0.9: activity coefficient strictly smaller gives satisfied, otherwise not satisfied.

Strictly below 0.9: is that where activity coefficient of CCOC(C)=O [ethyl acetate] + COCC[N+]1(C)CCOCC1.O=S(=O)([N-]S(=O)(=O)C(F)(F)F)C(F)(F)F sits?
not satisfied

Strictly below 0.9: is that where activity coefficient of C1=CCCCC1 [cyclohexene] + COCC[N+]1(C)CCOCC1.O=S(=O)([N-]S(=O)(=O)C(F)(F)F)C(F)(F)F sits?
not satisfied

Strictly below 0.9: is that where activity coefficient of CC(=O)O [acetic acid] + COCC[N+]1(C)CCOCC1.O=S(=O)([N-]S(=O)(=O)C(F)(F)F)C(F)(F)F sits?
satisfied

Strictly below 0.9: is that where activity coefficient of c1ccsc1 [thiophene] + COCC[N+]1(C)CCOCC1.O=S(=O)([N-]S(=O)(=O)C(F)(F)F)C(F)(F)F sits?
not satisfied

Strictly below 0.9: is that where activity coefficient of CCC(=O)CC [pentan-3-one] + COCC[N+]1(C)CCOCC1.O=S(=O)([N-]S(=O)(=O)C(F)(F)F)C(F)(F)F sits?
not satisfied

###

test: activity coefficient (dimensionless); of the first substance listed, at infinite dilution; xn = mol fraction of the nth substance listed; conditions: 338.15 K; Liquid; Chromatography; x1 = 0
Exercise: state measured activity coefficient for each of the compounds provided.
Please reply with the value in numeric form only.

# activity coefficient of C1=CCCCC1 [cyclohexene] + COCC[N+]1(C)CCOCC1.O=S(=O)([N-]S(=O)(=O)C(F)(F)F)C(F)(F)F = 8.21

# activity coefficient of CC(C)=O [acetone] + COCC[N+]1(C)CCOCC1.O=S(=O)([N-]S(=O)(=O)C(F)(F)F)C(F)(F)F = 0.451

# activity coefficient of CCC(C)(C)OC [2-methoxy-2-methylbutane] + COCC[N+]1(C)CCOCC1.O=S(=O)([N-]S(=O)(=O)C(F)(F)F)C(F)(F)F = 5.43

# activity coefficient of CCC(C)(C)C [2,2-dimethylbutane] + COCC[N+]1(C)CCOCC1.O=S(=O)([N-]S(=O)(=O)C(F)(F)F)C(F)(F)F = 25.7

# activity coefficient of C1CCCCCC1 [cycloheptane] + COCC[N+]1(C)CCOCC1.O=S(=O)([N-]S(=O)(=O)C(F)(F)F)C(F)(F)F = 21.5

# activity coefficient of CCCCCCCCC [nonane] + COCC[N+]1(C)CCOCC1.O=S(=O)([N-]S(=O)(=O)C(F)(F)F)C(F)(F)F = 95.8

# activity coefficient of CCCCCC [hexane] + COCC[N+]1(C)CCOCC1.O=S(=O)([N-]S(=O)(=O)C(F)(F)F)C(F)(F)F = 29.8
